Provenance of the data: patent US20250171438A1

Give AC50 for every item shown.
# system-name: human PAH with the R408W mutation (Homo sapiens, UniProt P00439, R408W)
# Construct: expressed in transfected cells
# Sequence (P00439 whole entry R408W): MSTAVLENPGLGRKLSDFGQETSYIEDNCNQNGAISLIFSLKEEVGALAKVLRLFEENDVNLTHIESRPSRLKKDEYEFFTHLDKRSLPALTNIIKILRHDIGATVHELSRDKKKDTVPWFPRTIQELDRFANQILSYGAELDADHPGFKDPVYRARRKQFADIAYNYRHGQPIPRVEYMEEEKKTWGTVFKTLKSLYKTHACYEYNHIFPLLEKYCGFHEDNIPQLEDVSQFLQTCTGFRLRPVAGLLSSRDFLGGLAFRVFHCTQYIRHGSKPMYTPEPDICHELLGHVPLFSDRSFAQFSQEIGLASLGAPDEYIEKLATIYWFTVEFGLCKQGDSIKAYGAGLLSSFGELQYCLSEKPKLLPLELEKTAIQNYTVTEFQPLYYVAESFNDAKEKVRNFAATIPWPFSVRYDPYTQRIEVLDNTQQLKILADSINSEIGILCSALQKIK
# assay-details: Cell Based Phenylalanine Flux Assay
# experimental-setup: A375 cells expressing human R408W PAH; 24 hrs with compound; 13C-Tyrosine by LC-MS; average where tested multiple times; read-out: AC50

Task item: Give the measured AC50 of COC1CN(C(=O)N2CCc3[nH]cnc3C2c2nc3ccccc3s2)C1 (stereo not drawn) .
Reply: 1 to 5 µM

Task item: Give the measured AC50 of [2H]C([2H])([2H])OCc1cc(C(=O)N2CCc3[nH]cnc3C2c2nc3c(F)cccc3s2)n(C)n1 (stereo not drawn) .
Reply: 1 to 5 µM

Task item: Give the measured AC50 of CS(=O)(=O)c1ncoc1C(=O)N1CCc2[nH]cnc2C1c1nc2ccccc2s1 (stereo not drawn) .
Reply: > 5 µM

Task item: Give the measured AC50 of Cc1nc(C(C)(C)O)oc1C(=O)N1CC2(CC2)c2[nH]cnc2C1c1nc2ccccc2s1 (stereo not drawn) .
Reply: > 5 µM

Task item: Give the measured AC50 of O=C(CCc1ccncc1)N1CCc2[nH]cnc2C1c1nc2ccccc2[nH]1 (stereo not drawn) .
Reply: > 5 µM

Task item: Give the measured AC50 of "COc1ccc2c(C(=O)N3CCc4[nH]cnc4[C@H]3c3nc4ccccc4[nH]3)cnn2c1" .
Reply: 1 to 5 µM

Task item: Give the measured AC50 of Cc1cccc2sc(C3c4nc[nH]c4CCN3C(=O)c3cnn(C)c3Cl)nc12 (stereo not drawn) .
Reply: > 5 µM

Task item: Give the measured AC50 of O=C(Nc1ccc(F)cc1)N1CCc2[nH]cnc2C1c1nc2ccccc2s1 (stereo not drawn) .
Reply: 1 to 5 µM

Task item: Give the measured AC50 of O=C(c1ncc(Cl)s1)N1CCc2[nH]cnc2C1c1nc2ccc(Cl)cc2[nH]1 (stereo not drawn) .
Reply: > 5 µM

Task item: Give the measured AC50 of O=C(c1ccc2ncsc2c1)N1CCc2[nH]cnc2C1c1nc2ccccc2[nH]1 (stereo not drawn) .
Reply: 1 to 5 µM

Task item: Give the measured AC50 of COCc1ccc2c(C(=O)N3CC4(CC4)c4[nH]cnc4C3c3nc4ccccc4s3)cnn2c1 (stereo not drawn) .
Reply: 1 to 5 µM

Task item: Give the measured AC50 of O=C(c1cnn2ccccc12)N1CCc2[nH]cnc2C1c1nc2ccc(F)cc2[nH]1 (stereo not drawn) .
Reply: > 5 µM

Task item: Give the measured AC50 of Cc1ncc(C(=O)N2CCc3[nH]cnc3C2c2nc3c(F)cccc3s2)o1 (stereo not drawn) .
Reply: > 5 µM

Task item: Give the measured AC50 of O=C(Cc1nncs1)N1CCc2[nH]cnc2C1c1nc2ccccc2s1 (stereo not drawn) .
Reply: 1 to 5 µM

Task item: Give the measured AC50 of Cn1ncc(C(=O)N2CCc3[nH]cnc3[C@@H]2c2nc3c(F)cccc3s2)c1Br (single isomer, unassigned) .
Reply: > 5 µM

Task item: Give the measured AC50 of "Cc1nnc(CC(=O)N2CCc3[nH]cnc3[C@H]2c2nc3ccccc3[nH]2)s1" .
Reply: > 5 µM

Task item: Give the measured AC50 of O=C(CC1CC1)N1CCc2[nH]cnc2C1c1nc2c(F)cccc2s1 (stereo not drawn) .
Reply: 1 to 5 µM

Task item: Give the measured AC50 of O=C(c1cnco1)N1CCc2[nH]cnc2[C@@H]1c1nc2cc(F)ccc2s1 (single isomer, unassigned) .
Reply: > 5 µM

Task item: Give the measured AC50 of O=C(CCc1nnc(C(F)F)o1)N1CCc2[nH]cnc2C1c1nc2ccccc2s1 (stereo not drawn) .
Reply: 1 to 5 µM

Task item: Give the measured AC50 of "O=C(C1CCCC1)N1CCc2[nH]cnc2[C@H]1c1nc2ccccc2[nH]1" .
Reply: 1 to 5 µM

Task item: Give the measured AC50 of O=C(c1cnn(CCO)c1Cl)N1CCc2[nH]cnc2C1c1nc2c(F)cccc2s1 (stereo not drawn) .
Reply: > 5 µM
